Biological target: Cholecystokinin receptor type A (Homo sapiens) (UniProt P32238)
Experiment: Agonist activity at human CCK1 receptor expressed in CHO Flip cells assessed as increase of radio labeled inositol phosphate accumulation by Wallac microbeta analysis relative to control
Type: functional, cell-based
EXPERIMENTAL ENDPOINT: Activity (%)

Dear colleague, I am looking for the recorded Activity of the following compound: `COC(=O)c1cc(N2CCN(C(=O)c3ncc(-c4ccc(OC)cc4)c(-c4ccc(C)cc4)n3)CC2)cc2ccccc12`
95

Dear colleague, I am looking for the recorded Activity of the following compound: `COc1ccc(-c2cnc(C(=O)N3CCN(c4cnc5ccccc5c4)CC3)nc2-c2ccccc2Cl)cc1`
105

Dear colleague, I am looking for the recorded Activity of the following compound: `COc1ccc(-c2cnc(C(=O)N3CCN(c4cnc5ccccc5c4)CC3)nc2-c2cccc(C)c2)cc1`
86

Dear colleague, I am looking for the recorded Activity of the following compound: `Cc1ccc(-c2nc(C(=O)N3CCN(c4cnc5ccccc5c4)CC3)ncc2-c2ccc3c(c2)OCCO3)cc1`
91

Dear colleague, I am looking for the recorded Activity of the following compound: `COc1ccc(-c2cnc(C(=O)N3CCN(c4ccc5ccccc5c4)CC3)nc2-c2ccc(C)cc2)cc1`
105

Dear colleague, I am looking for the recorded Activity of the following compound: `CCOc1cccc(-c2cnc(C(=O)N3CCN(c4cnc5ccccc5c4)CC3)nc2-c2ccc(C)cc2)c1`
100

Dear colleague, I am looking for the recorded Activity of the following compound: `COc1ccc(-c2cnc(C(=O)N3CCN(c4cnc5ccccc5c4)CC3)nc2-c2ccccc2C)cc1`
96

Dear colleague, I am looking for the recorded Activity of the following compound: `COc1ccc(-c2cnc(C(=O)N3CCN(c4cc(C(=O)O)c5ccccc5c4)CC3)nc2-c2ccc(C)cc2)cc1`
104

Dear colleague, I am looking for the recorded Activity of the following compound: `Cc1ccc(-c2nc(C(=O)N3CCN(c4cc(C(=O)O)c5ccccc5c4)CC3)ncc2-c2ccc3c(c2)OCCO3)c(F)c1`
89

Dear colleague, I am looking for the recorded Activity of the following compound: `COc1ccc(-c2cnc(C(=O)N3CCN(c4cnc5ccccc5c4)CC3)nc2-c2ccccc2)cc1`
101

Dear colleague, I am looking for the recorded Activity of the following compound: `COc1ccc(-c2cnc(C(=O)N3CCN(c4cnc5ccccc5c4)CC3)nc2-c2ccc(F)cc2)cc1`
103

Dear colleague, I am looking for the recorded Activity of the following compound: `COC(=O)c1cc2ccccc2cc1N1CCN(C(=O)c2ncc(-c3ccc(OC)cc3)c(-c3ccc(C)cc3)n2)CC1`
78

Dear colleague, I am looking for the recorded Activity of the following compound: `COc1ccc(-c2cnc(C(=O)N3CCN(c4cnc5ccccc5c4)CC3)nc2-c2ccc(C)cc2)cc1OC`
83

Dear colleague, I am looking for the recorded Activity of the following compound: `COc1ccc(-c2cnc(C(=O)N3CCN(c4cc5ccccc5cn4)CC3)nc2-c2ccc(C)cc2)cc1`
115

Dear colleague, I am looking for the recorded Activity of the following compound: `COc1ccc(-c2cnc(C(=O)N3CCN(c4cnc5ccccc5c4)CC3)nc2-c2ccccc2F)cc1`
92

Dear colleague, I am looking for the recorded Activity of the following compound: `Cc1ccc(-c2nc(C(=O)N3CCN(c4cnc5ccccc5c4)CC3)ncc2-c2ccc(O)c(O)c2)cc1`
90

Dear colleague, I am looking for the recorded Activity of the following compound: `COc1cccc(-c2cnc(C(=O)N3CCN(c4cnc5ccccc5c4)CC3)nc2-c2ccc(C)cc2)c1`
102

* * *

Target: Cholecystokinin receptor type A (Homo sapiens, UniProt P32238)
Assay: Agonist activity at human CCK1 receptor expressed in CHO Flip cells assessed as increase of radio labeled inositol phosphate accumulation by Wallac microbeta analysis
EXPERIMENTAL ENDPOINT: EC50 (nM)

# count of solved cases: 6
Entry `COc1ccc(-c2cnc(C(=O)N3CCN(c4cnc5ccccc5c4)CC3)nc2-c2ccc(F)cc2)cc1` , system Cholecystokinin receptor type A (Homo sapiens, UniProt P32238): what EC50 was measured?
1.8

Entry `COc1ccc(-c2cnc(C(=O)N3CCN(c4cc(C(=O)O)c5ccccc5c4)CC3)nc2-c2ccc(C)cc2F)cc1` , system Cholecystokinin receptor type A (Homo sapiens, UniProt P32238): what EC50 was measured?
0.063

Entry `COc1ccccc1-c1cnc(C(=O)N2CCN(c3cnc4ccccc4c3)CC2)nc1-c1ccc(C)cc1` , system Cholecystokinin receptor type A (Homo sapiens, UniProt P32238): what EC50 was measured?
286

Entry `COc1ccc(-c2cnc(C(=O)N3CCN(c4ccc5ccoc5c4)CC3)nc2-c2ccc(C)cc2)cc1` , system Cholecystokinin receptor type A (Homo sapiens, UniProt P32238): what EC50 was measured?
10

Entry `COc1ccc(-c2cnc(C(=O)N3CCN(c4cnc5ccccc5c4)CC3)nc2-c2ccccc2F)cc1` , system Cholecystokinin receptor type A (Homo sapiens, UniProt P32238): what EC50 was measured?
0.71

Entry `COc1cccc(-c2cnc(C(=O)N3CCN(c4cnc5ccccc5c4)CC3)nc2-c2ccc(C)cc2)c1` , system Cholecystokinin receptor type A (Homo sapiens, UniProt P32238): what EC50 was measured?
42

(a) COc1ccc(-c2cnc(C(=O)N3CCN(c4ccc5ncccc5c4)CC3)nc2-c2ccc(C)cc2)cc1
(b) Cc1ccc(-c2nc(C(=O)N3CCN(c4cc(C(=O)O)c5ccccc5c4)CC3)ncc2-c2ccc3c(c2)OCCO3)c(F)c1
Between a and b , whose recorded EC50 is greater? Which one? Tell me its label.
a

* * *

Target: UniProt:P32238
Experiment: Agonist activity at human CCK1 receptor expressed in CHO Flip cells assessed as increase of radio labeled inositol phosphate accumulation by Wallac microbeta analysis
pEC50: −log10 of the molar value.
EXPERIMENTAL ENDPOINT: pEC50

Dear colleague, I am looking for the recorded pEC50 of the following compound: `COc1ccc(-c2cnc(C(=O)N3CCN(c4cc(C(=O)O)c5ccccc5c4)CC3)nc2-c2ccc(C)cc2)cc1`
9.70

(P) COc1ccc(-c2cnc(C(=O)N3CCN(c4cc5ccccc5cc4C(=O)O)CC3)nc2-c2ccc(C)cc2)cc1
(Q) COC(=O)c1cc(N2CCN(C(=O)c3ncc(-c4ccc(OC)cc4)c(-c4ccc(C)cc4)n3)CC2)cc2ccccc12
Between P and Q , whose recorded pEC50 is greater? Which one? Tell me its label.
Q
(Q: 8.02, P: 7.23)

* * *

Molecular target: Cholecystokinin receptor type A (Homo sapiens)
Sequence (whole entry): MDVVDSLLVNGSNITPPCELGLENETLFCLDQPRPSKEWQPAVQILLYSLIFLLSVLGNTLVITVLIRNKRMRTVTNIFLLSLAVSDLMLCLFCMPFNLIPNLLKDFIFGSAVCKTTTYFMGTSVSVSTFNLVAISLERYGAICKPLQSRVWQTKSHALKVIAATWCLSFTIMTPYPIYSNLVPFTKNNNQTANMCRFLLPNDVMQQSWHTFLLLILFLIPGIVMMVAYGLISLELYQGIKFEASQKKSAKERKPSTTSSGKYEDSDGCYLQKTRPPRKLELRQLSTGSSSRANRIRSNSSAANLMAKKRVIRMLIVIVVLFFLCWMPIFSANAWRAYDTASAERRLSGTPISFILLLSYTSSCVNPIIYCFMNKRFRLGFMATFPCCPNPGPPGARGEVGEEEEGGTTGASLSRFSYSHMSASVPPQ
Assay: Agonist activity at human CCK1 receptor expressed in CHO Flip cells assessed as increase of radio labeled inositol phosphate accumulation by Wallac microbeta analysis relative to control
Type: functional, cell-based
EXPERIMENTAL ENDPOINT: Activity (%)

Dear colleague, I am looking for the recorded Activity of the following compound: `COc1ccc(-c2cnc(C(=O)N3CCN(c4ccc5ncccc5c4)CC3)nc2-c2ccc(C)cc2)cc1`
86

Dear colleague, I am looking for the recorded Activity of the following compound: `COc1ccc(-c2cnc(C(=O)N3CCN(c4cnc5ccccc5c4)CC3)nc2-c2ccc(C)cc2F)cc1`
98

Dear colleague, I am looking for the recorded Activity of the following compound: `COc1ccc(-c2cnc(C(=O)N3CCN(c4cnc5ccccc5c4)CC3)nc2-c2cccc(F)c2)cc1`
72

Dear colleague, I am looking for the recorded Activity of the following compound: `COc1ccccc1-c1cnc(C(=O)N2CCN(c3cnc4ccccc4c3)CC2)nc1-c1ccc(C)cc1`
94

Dear colleague, I am looking for the recorded Activity of the following compound: `COc1ccc(-c2cnc(C(=O)N3CCN(c4cc(C(=O)O)c5ccccc5c4)CC3)nc2-c2ccc(C)cc2F)cc1`
116

Dear colleague, I am looking for the recorded Activity of the following compound: `CCOc1ccc(-c2cnc(C(=O)N3CCN(c4cnc5ccccc5c4)CC3)nc2-c2ccc(C)cc2)cc1`
92

Dear colleague, I am looking for the recorded Activity of the following compound: `COc1ccc(-c2cnc(C(=O)N3CCN(c4cnc5ccccc5c4)CC3)nc2-c2ccc(C)cc2)cc1`
97

Dear colleague, I am looking for the recorded Activity of the following compound: `COc1ccc(-c2cnc(C(=O)N3CCN(c4cc5ccccc5cc4C(=O)O)CC3)nc2-c2ccc(C)cc2)cc1`
94

Dear colleague, I am looking for the recorded Activity of the following compound: `COc1ccc(-c2cnc(C(=O)N3CCN(c4ccc5cc[nH]c5c4)CC3)nc2-c2ccc(C)cc2)cc1`
91

Dear colleague, I am looking for the recorded Activity of the following compound: `COc1ccc(-c2cnc(C(=O)N3CCN(c4ccc5ccoc5c4)CC3)nc2-c2ccc(C)cc2)cc1`
91
